- Tested system: CDK5/GST-p25 (Homo sapiens)
- Sequence (Q00535 whole entry, species assumed): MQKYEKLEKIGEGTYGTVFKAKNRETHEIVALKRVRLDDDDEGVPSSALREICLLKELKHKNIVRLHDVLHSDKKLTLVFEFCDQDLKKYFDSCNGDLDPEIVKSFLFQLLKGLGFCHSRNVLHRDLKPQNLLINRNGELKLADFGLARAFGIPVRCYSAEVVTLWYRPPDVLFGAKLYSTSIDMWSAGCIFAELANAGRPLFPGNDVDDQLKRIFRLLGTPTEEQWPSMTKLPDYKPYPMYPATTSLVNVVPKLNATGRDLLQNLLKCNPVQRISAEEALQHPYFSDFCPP
- Sequence (Q15078 99-307 partner limits assumed, species assumed): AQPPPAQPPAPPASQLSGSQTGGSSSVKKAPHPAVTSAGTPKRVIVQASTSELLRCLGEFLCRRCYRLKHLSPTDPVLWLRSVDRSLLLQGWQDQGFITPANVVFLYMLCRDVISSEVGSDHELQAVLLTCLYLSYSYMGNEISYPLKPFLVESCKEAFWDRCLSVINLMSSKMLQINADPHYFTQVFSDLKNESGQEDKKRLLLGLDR
- Measurement notes: Cyclin-Dependent Kinase 5 inhibition assay (TRF)
- Measurement context: 10 μM ATP; read-out: CDK-5 IC50
- Protocol: Compounds were tested for their ability to inhibit the kinase activity of baculovirus-expressed cyclin-dependent kinase-5 complexed with GST-p25 (CDK5/GST-p25) using a a TRF detection system. […] The plate was gently agitated and after a few minutes, the fluorescence of the resulting solution was measured using the PerkinElmer EnVision 2100 (or 2102) multilabel plate reader.
pIC50: −log10 of the molar value.
Value type: pIC50

smiles_input=O=c1[nH]nc(-c2ccc(O)cc2)c2[nH]c3ccccc3c12 measured_value=6.18

A. COc1ccc2c(c1)[nH]c1c(-c3ccc(O)cc3)n[nH]c(=O)c12
B. O=c1[nH]nc(-c2ccncc2)c2[nH]c3ccccc3c12
Query string: So which one has the bigger pIC50 here, A or B ? API: response body contains the label of the selected item.
Result string: A
(A: 6.12, B: 5.42)
